target: T1, GST-N-WASP extended GBD (residues 156–274) (UniProt O00401 156-274); assay: fluorescence polarisation; direct binding: fluorescein-VCA peptide 2 nM, GST-GBD or GST-WH1 + GBD 0.1–200 μM, 25 °C, TBS, 1 mM DTT; one-site equilibrium model; conditions: both partners purified
T1 construct: Cloned in pGEX-6P-1 or pGEX-4T-2; also called GST-GBD; GBD alone; source: E. coli Rosetta(DE3), purified (glutathione-Sepharose, SEC)
T1 sequence (O00401 156-274): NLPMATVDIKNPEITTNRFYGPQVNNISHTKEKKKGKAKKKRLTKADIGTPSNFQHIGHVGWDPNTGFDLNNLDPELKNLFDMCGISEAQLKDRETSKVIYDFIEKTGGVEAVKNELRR
pKd: −log10 of the molar value. No end group written: not given here.
Measurement Kind: pKd

1. fluorescein-APTSGIVGALMEVMQKRSKA (also called labeled peptide; source: synthetic peptide (Genscript)) [Fluorescein-labelled N-WASP VCA peptide (residues 462–481)]	4.54
